For each record, write down the corresponding IC50.
- tgt: full-length beta-Catenin (Uniprot ID P35222) (Homo sapiens (Human)) (UniProt P35222)
- Sequence (P35222 whole entry): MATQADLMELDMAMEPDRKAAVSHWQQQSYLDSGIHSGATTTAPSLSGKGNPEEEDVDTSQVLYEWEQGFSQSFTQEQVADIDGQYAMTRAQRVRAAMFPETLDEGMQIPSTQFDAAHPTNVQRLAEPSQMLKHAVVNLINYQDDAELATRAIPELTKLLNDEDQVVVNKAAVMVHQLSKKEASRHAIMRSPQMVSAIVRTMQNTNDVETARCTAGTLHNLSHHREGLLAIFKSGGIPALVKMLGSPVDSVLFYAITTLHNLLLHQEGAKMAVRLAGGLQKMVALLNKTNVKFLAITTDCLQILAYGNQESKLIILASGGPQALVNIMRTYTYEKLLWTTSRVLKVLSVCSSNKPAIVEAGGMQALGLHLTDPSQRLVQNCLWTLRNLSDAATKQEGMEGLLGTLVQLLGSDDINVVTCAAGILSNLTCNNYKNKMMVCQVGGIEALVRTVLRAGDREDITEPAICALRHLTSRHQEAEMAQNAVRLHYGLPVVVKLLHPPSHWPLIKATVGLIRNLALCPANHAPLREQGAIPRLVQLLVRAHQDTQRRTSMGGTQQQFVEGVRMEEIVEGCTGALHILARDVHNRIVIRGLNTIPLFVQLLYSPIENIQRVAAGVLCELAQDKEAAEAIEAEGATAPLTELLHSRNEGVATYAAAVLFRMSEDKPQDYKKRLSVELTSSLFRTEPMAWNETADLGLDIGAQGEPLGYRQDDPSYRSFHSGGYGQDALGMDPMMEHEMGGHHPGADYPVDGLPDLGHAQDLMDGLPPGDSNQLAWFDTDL
- measurementDescription: fluorescence polarization competition; 10 nM full-length beta-catenin, competitor 10 nM 5FAM-TCF4(10-53)
Starred links: 1 amine or outer side, 2 acyl side, 3 side chain; linkers in the order of their positions; H or OH if unused. Positions of bridges follow the written chain, without caps; N, C: chain ends. Non-standard residues stand in square brackets, D forms with d. Primed or numbered codes have the meaning given here. PyrS2(3) = (S)-3-amino-1-((pent-4-en-1-yloxy)carbonyl)pyrrolidine-3-carboxylic acid, stapling residue, C=CCCCOC(=O)N1CC[C@@](N[*:1])(C(=O)[*:2])C1; PyrS2″ = (S)-3-amino-1-((pent-4-en-1-yloxy)carbonyl)pyrrolidine-3-carboxylic acid (stapling residue), C=CCCCOC(=O)N1CC[C@@](N[*:1])(C(=O)[*:2])C1; (CH2NMe2)TriAzDap = (S)-2-amino-3-(4-((dimethylamino)methyl)-1H-1,2,3-triazol-1-yl)propanoic acid, CN(C)Cc1cn(C[C@H](N[*:1])C(=O)[*:2])nn1; B5(18) = 2,2-bis(4-pentenyl)glycine (2-amino-2-(pent-4-en-1-yl)hept-6-enoic acid), stitching residue, C=CCCCC(CCCC=C)(N[*:1])C(=O)[*:2]; B5(4) = 2,2-bis(4-pentenyl)glycine = 2-amino-2-(pent-4-en-1-yl)hept-6-enoic acid (stitching residue), C=CCCCC(CCCC=C)(N[*:1])C(=O)[*:2]; B5(5) = 2,2-bis(4-pentenyl)glycine, 2-amino-2-(pent-4-en-1-yl)hept-6-enoic acid (stitching residue), C=CCCCC(CCCC=C)(N[*:1])C(=O)[*:2]; TfeGA = (S)-2-amino-3-((carboxymethyl)(2,2,2-trifluoroethyl)amino)propanoic acid, O=C([C@H](CN(CC(=O)[*:3])CC(F)(F)F)N[*:1])[*:2]; Phe(3-COOH) = N[C@@H](Cc1cccc(C(=O)O)c1)C(=O)O; Phe(2-CF3) = N[C@@H](Cc1ccccc1C(F)(F)F)C(=O)O; Phe(2-Cl) = N[C@@H](Cc1ccccc1Cl)C(=O)O; Bta = N[C@@H](Cc1csc2ccccc12)C(=O)O; αAllylPro = C=CC[C@@]1(C(=O)O)CCCN1; tBuAla = CC(C)(C)C[C@H](N)C(=O)O; 3Thi = N[C@@H](Cc1ccsc1)C(=O)O
Numbers only, in nM.

Some solved entries appear below for comparison.
INSERT INTO assay_data (binder, measuredparameter, resultunits, testresult) VALUES
  ('Ac-[αAllylPro]D[tBuAla][B5(18)]D[Phe(3-COOH)]AAFL[PyrS2(3)][Phe(2-Cl)][Bta]-NH2 (staple 1-4, 4-11) [I-1852]', 'IC50', 'nM', 48),
  ('Ac-[αAllylPro]D[tBuAla][B5(5)]D[TfeGA]AA[(CH2NMe2)TriAzDap]L[PyrS2″][3Thi][Bta]Q-NH2 (staple 1-4, 4-11; also: separately listed staple isomer composition) [I-1855]', 'IC50', 'nM', 849);

// switching to the query binder
Qu. # query: IC50 of entry Ac-[αAllylPro]D[tBuAla][B5(4)]D[Phe(3-COOH)]QAFL[PyrS2″][Phe(2-CF3)][7ClBztA]A-NH2 (staple 1-4, 4-11) [I-2487]
Ans. 36
